Entries annotated with measured Test result Male (mortality, animals died out of 3)
System: ddy mouse (Slc:ddy)
RUN DESCRIPTION: Oral acute toxicity test
Format: in vivo
Set-up: key: 0/3 means none of 3 recipient animals died; 1/3 means one out of 3 recipient animals died; 2/3 means 2 out of 3 recipient animals died; 3/3 means all 3 recipient animals died
CONDITION DETAILS: male ddy mouse, oral 30 mg/kg, mortality investigated for 7 days
REPORTED PROPERTY: Test result Male (mortality, animals died out of 3)

COMPOUND	READOUT VALUE
CC(CCOC(=O)c1sc(-c2ccccc2)nc1C)=C(F)F	0/3
O=C(OCCCCC=C(F)F)c1ccc(Cl)nc1 [Reference compound A, reference compound]	3/3
CC(CCOC(=O)c1ccc(OC2CCCC2)nc1)=C(F)F	0/3
CC(CCCCOC(=O)c1cc2ccccc2s1)=C(F)F	0/3
CC(CCCCOC(=O)c1ccc(Cl)nc1)=C(F)F	0/3
Cc1nc(-c2ccccc2)ncc1C(=O)OCCC=C(F)F [Reference compound C, reference compound]	3/3
CC(CCOC(=O)c1cnc(N(C)c2ccccc2)nc1C)=C(F)F	0/3
CCCCOc1ncc(C(=O)OCCC=C(F)F)c(C)n1 [Reference compound B, reference compound]	3/3
CCCCOc1ncc(C(=O)OCCC(C)=C(F)F)c(C)n1	0/3

###

Tested on: ddy mouse (Slc:ddy)
RUN DESCRIPTION: Oral acute toxicity test
Assay type: in vivo
Set-up: key: 0/3 means none of 3 recipient animals died; 1/3 means one out of 3 recipient animals died; 2/3 means 2 out of 3 recipient animals died; 3/3 means all 3 recipient animals died
CONDITION DETAILS: male ddy mouse, oral 30 mg/kg, mortality investigated for 7 days
REPORTED PROPERTY: Test result Male (mortality, animals died out of 3)

COMPOUND	READOUT VALUE
CC(CCOC(=O)c1cnc(-c2ccccc2)nc1C)=C(F)F	0/3
O=C(OCCCCC=C(F)F)c1cc2ccccc2s1 [Reference compound D, reference compound]	3/3
CCCCOc1ccc(C(=O)OCCC(C)=C(F)F)cn1	0/3
CC(CCOC(=O)c1cc2ccccc2s1)=C(F)F	0/3
CC(CCCCOC(=O)c1sc(-c2ccccc2)nc1C)=C(F)F	0/3

###

# Test result Female (mortality, animals died out of 3) values compiled below
Test system: ddy mouse (Slc:ddy)
RUN DESCRIPTION: Oral acute toxicity test
Format: in vivo
Design: key: 0/3 means none of 3 recipient animals died; 1/3 means one out of 3 recipient animals died; 2/3 means 2 out of 3 recipient animals died; 3/3 means all 3 recipient animals died
CONDITION DETAILS: female ddy mouse, oral 30 mg/kg, mortality investigated for 7 days
REPORTED PROPERTY: Test result Female (mortality, animals died out of 3)

COMPOUND	READOUT VALUE
CC(CCCCOC(=O)c1ccc(Cl)nc1)=C(F)F	0/3
CCCCOc1ncc(C(=O)OCCC=C(F)F)c(C)n1 [Reference compound B, reference compound]	3/3
CC(CCOC(=O)c1cnc(-c2ccccc2)nc1C)=C(F)F	0/3
CC(CCOC(=O)c1ccc(OC2CCCC2)nc1)=C(F)F	0/3
